So I've got a bunch of compounds here, and I need their T/C values.
# System: L1210 leukemia ip in BDF1 mice, survival T/C
# ASSAY_PROCEDURE: NCI In Vivo Anticancer Drug Screen. Data for tumor model L1210 Leukemia (intraperitoneal) in B6D2F1 (BDF1) mice
# TEST_CONTEXT: endpoint: mean survival time; dose: 75.0 mg/kg/injection; schedule: Q01DX001 (ip); vehicle: other; higher = longer survival
Inconclusive results and toxic doses are left out.

>  <COMPOUND>
Nc1nnnc2c1ncn2C1CCCC1

>  <TEST_VALUE>
97 % of control

$$$$
>  <COMPOUND>
NC(CSC(c1ccccc1)(c1ccccc1)c1ccc(O)cc1)C(=O)O (centres undefined)

>  <TEST_VALUE>
104 % of control

$$$$
>  <COMPOUND>
COc1nc(SC)nc2[nH]ccc12

>  <TEST_VALUE>
103 % of control

$$$$
>  <COMPOUND>
Nc1nc2ncc(CNc3nc(C(=O)NC(CCC(=O)O)C(=O)O)cs3)nc2c(=O)[nH]1 (centres undefined)

>  <TEST_VALUE>
101 % of control

$$$$

Here are 5 compounds. What values of T/C were reported for them?
1. O=[N+]([O-])c1ccc(-n2nccn2)cc1
2. NC(=O)N/N=C1/C=C2CCCCC2CC1 (centres undefined)
3. COCC(=N)C(C#N)(OC)C(=O)c1ccccc1 (centres undefined)
4. CCOC(=O)C(C#N)C(=N)C1CC(C)(C)OC1=O (centres undefined)
5. CSc1nc(Cl)c2ccn(C)c2n1

1. 100 % of control
2. 101 % of control
3. 101 % of control
4. 101 % of control
5. 100 % of control
